Tested on: crabgrass, large
experiment.notes: Test A preemergence
Assay type: in vivo, Digitaria sanguinalis
reported.conditions: preemergence, 500 g ai/ha, visual injury after approx. 10 days, 0 to 100 scale (0 no effect, 100 complete control)

# molecule, Crabgrass, Large plant response rating
measured = [
    ("CCc1cc(C(=O)NCC(F)(F)F)nn1Oc1cccc(OC(F)(F)F)c1 [Compound 221]", 90),
    ("CCc1cc(C(=O)NC(C)C)nn1Cc1ccnc(C(F)(F)F)c1 [Compound 139]", 100),
    ("CCCNC(=O)c1cc(CCCl)n(Cc2ccnc(C(F)(F)F)c2)n1 [Compound 145]", 100),
    ("CCCCc1cc(C(=O)NC2CC2)nn1Cc1ccnc(C(F)(F)F)c1 [Compound 151]", 100),
    ("CCc1cc(C(=O)NC2CC2)nn1Cc1cc(C(F)(F)C(F)(F)F)nn1C [Compound 226]", 100),
]

// provenance: patent US20150105252A1
